Test system: CAKI-1
Assay: NCI tumour cell line growth inhibition, 48 h
The source made the active and inactive calls. No stated cut-off is given here; in the data, active = GI50 up to about 1.1 µM and inactive = higher.
Measured endpoint: GI50

                                    molecule                value
 0  CN(C)CS/C(N)=N\C(O)C(Cl)(Cl)Cl (configuration not stated)  > 100 µM (inactive)
 1  COc1ccc(NC(=S)NNC(=O)c2cc(-c3ccccc3)nc3ccccc23)cc1   23.4 µM (inactive)
 2  Cc1ccc(N2C(=O)C3C=CC(n4[nH]c(=O)n(Cc5ccccc5)c4=O)CC3C2=O)cc1 (configuration not stated)  > 100 µM (inactive)
 3  N#C/N=C(/NCc1ccccc1)N(Cc1ccccc1)Cc1ccccc1   28.5 µM (inactive)
 4  CN(C)C(=S)/N=c1\ss/c(=N\S(=O)(=O)c2ccccc2)n1-c1ccccc1  > 100 µM (inactive)
 5  CC(CCC[C@H](C)CO)[C@H]1[C@@H](O)C(O)C2[C@@H]3C[C@@H](O)C4(O)C[C@@H](O)CC[C@]4(C)C3CC[C@@]21C (some centres not stated)  > 100 µM (inactive)
 6  CN(C)CCNc1ccc2nnn3c4ccc(Cl)cc4c(=O)c1c23   2.25 µM (inactive)
 7  O=c1[nH]c2c(c(=O)[nH]1)SC(c1ccccc1)C2 (configuration not stated)  > 100 µM (inactive)
 8  N#Cc1c(-c2ccccc2)c(C#N)c(=S)n(C2OC(CO)C(O)C(O)C2O)c1O (configuration not stated)  > 100 µM (inactive)
 9  COc1c(O)c(O)c2c(c1O)C(=O)c1cc(C)cc(O)c1C2=O   37.9 µM (inactive)
10  CC1OC(CC2C=CCc3c(O)c4c(c(O)c32)C(=O)c2ccccc2C4=O)CC(NC(=O)C(F)(F)F)C1O (configuration not stated)   7.55 µM (inactive)
11   CCNC(=S)NNC(=O)c1csc(NC(=S)NC2CCCCC2)n1   6.71 µM (inactive)
12   CNC(=O)N(CCC#N)CCCN(C(=O)N(C)C)c1ccccc1  > 100 µM (inactive)
13              O=C(O)C/C(=C\c1ccccc1)C(=O)O  > 100 µM (inactive)
14  CCOC(=O)C1=CN2C(=N[C@H]3CCCC[C@@H]32)NC1=O  > 100 µM (inactive)
15                CCc1cccc(C(C)C)c1NC(=O)CCl  > 100 µM (inactive)
16  CC(CO)CCC(O)C(C)(O)C1CCC2(O)C3=CC(=O)C4CC(O)C(O)CC4(C)C3CCC12C (configuration not stated)  > 100 µM (inactive)
17  O=C1/C=C(/c2ccc(O)cc2)[C@@H](O)Cc2ccc(O)cc2O1   29.1 µM (inactive)
18                COc1ccc(NC(=O)CC(=O)NN)cc1  > 100 µM (inactive)
19  O=C(NCCc1ccc(F)cc1)c1cc(/C=C/c2cc(O)ccc2O)ccc1O   3.03 µM (inactive)
20  CCCCC/C=C1\CCC(CN2CCOCC2)C1=O (configuration not stated)   5.28 µM (inactive)
21  Cc1nc2ccccc2c(=O)n1/N=C(\N=N\c1cc(Cl)ccc1Cl)c1ccc(N(C)C)cc1     34 µM (inactive)
22        CN(C)C(=S)/N=c1\ssc(=S)n1Cc1ccccn1   6.93 µM (inactive)
23  COc1ccc(/C=N/n2c(Cc3ccccc3)n[nH]c2=O)cc1  > 100 µM (inactive)
24  CC(=O)C(N1CCCCC1)C(O)(C(F)(F)F)C(F)(F)F (configuration not stated)  > 100 µM (inactive)
25  CN(C)c1cccc(F)c1C(=O)NC(=O)Nc1ccc(Cl)cc1   3.78 µM (inactive)
26  COc1ccc(CC/N=C2\CCC(C(=O)NCCc3ccc(OC)c(OC)c3)N2)cc1OC (configuration not stated)  > 100 µM (inactive)
